// data source = ChEMBL document CHEMBL1201862

# MEASURED_ON: Mu-type opioid receptor (Homo sapiens, UniProt P35372)
# Sequence (P35372 whole entry): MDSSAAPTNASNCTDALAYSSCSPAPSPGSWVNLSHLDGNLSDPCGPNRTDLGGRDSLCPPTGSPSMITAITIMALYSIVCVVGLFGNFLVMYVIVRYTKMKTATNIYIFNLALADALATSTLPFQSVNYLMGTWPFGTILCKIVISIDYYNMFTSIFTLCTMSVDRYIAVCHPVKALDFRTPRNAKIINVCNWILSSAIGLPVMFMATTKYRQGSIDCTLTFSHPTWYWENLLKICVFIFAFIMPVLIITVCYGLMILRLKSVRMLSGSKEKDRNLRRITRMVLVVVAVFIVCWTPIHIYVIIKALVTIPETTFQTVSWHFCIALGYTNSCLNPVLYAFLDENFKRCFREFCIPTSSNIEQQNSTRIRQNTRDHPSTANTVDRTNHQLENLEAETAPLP
# TEST_DETAILS: Counterscreen for agonists of heterodimerization of the mu 1 (OPRM1) and delta 1 (OPRD1) opioid receptors: Luminescence-based cell-based high throughput dose response assay to identify agonists of OPRM1 homodimerization.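 Also: U2OS cells expressing OPRM1 and beta-arrestin as split beta-galactosidase partners.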
# Format: functional
Calls of active or inactive are those of the source. Rule as the data show it: active = EC50 of 10 µM or less and inactive = more.

MOLECULE: CCC1(C)CC(CCNCc2ccc(N(C)C)cc2)(c2ccc(F)cc2)CCO1 (centres undefined)
EC50: 29.2 µM (inactive)
//
MOLECULE: O=C(CSc1ccc(Cl)cc1)Nc1ccc(-c2nc3ccccc3[nH]2)cc1
EC50: > 92.5 µM (inactive)
//
MOLECULE: OCC1(CCc2ccccc2)CCN(Cc2ccccc2Cl)CC1
EC50: 67.6 µM (inactive)
//
MOLECULE: CCOC(=O)C1(CCOc2ccccc2)CCN(Cc2cccn2-c2cccnc2)CC1
EC50: 17.5 µM (inactive)
